Please go through the items and note down their pIC50.
Experimental target: IRAK4 (Homo sapiens, UniProt Q9NWZ3)
Construct: purchased CARNA Bioscience 09-145
Sequence (Q9NWZ3 1-460): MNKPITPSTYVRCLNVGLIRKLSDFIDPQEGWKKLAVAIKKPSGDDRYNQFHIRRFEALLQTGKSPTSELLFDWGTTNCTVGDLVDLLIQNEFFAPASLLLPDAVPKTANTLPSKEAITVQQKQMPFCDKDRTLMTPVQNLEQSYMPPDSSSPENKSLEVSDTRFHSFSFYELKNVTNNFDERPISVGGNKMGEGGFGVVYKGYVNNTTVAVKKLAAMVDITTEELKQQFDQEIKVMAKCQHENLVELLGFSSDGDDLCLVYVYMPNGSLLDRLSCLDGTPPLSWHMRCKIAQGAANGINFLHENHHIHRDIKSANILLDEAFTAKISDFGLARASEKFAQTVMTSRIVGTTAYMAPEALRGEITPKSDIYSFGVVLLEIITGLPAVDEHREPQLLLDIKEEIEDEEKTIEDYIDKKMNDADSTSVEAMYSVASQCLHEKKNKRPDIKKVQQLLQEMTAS
Experimental details: IRAK-4 activity inhibition assay (Caliper, Peptide 8, 37 μM ATP)
Type: biochemical
Run parameters: 3.5 nM IRAK4, 1.5 μM Peptide 8, 37 μM ATP, 28° C. 40 minutes; read-out: IRAK-4 activity inhibition IC50
Experimental: A 1× kinase base buffer was prepared from 50 mM HEPES, pH 7.5 and 0.0015% Brij-35. A stop buffer was prepared from 100 mM HEPES, pH 7.5, 0.015% Brij-35, 0.2% Coating Reagent #3, and 50 mM EDTA. Test compound was diluted to 50× of the final desired highest inhibitor concentration in reaction by 100% DMSO. 100 ul of this compound dilution was transferred to a well in a 96-well plate. […]
pIC50: −log10 of the molar value.

Tested on IRAK4 (Homo sapiens, UniProt Q9NWZ3), the item c1nc(NCC2CCNCC2)c2c3c(sc2n1)CCC3 [Compound I-59] showed pIC50 equal to 4.30 to 4.70

Tested on IRAK4 (Homo sapiens, UniProt Q9NWZ3), the item O=C(O)CN[C@H]1CC[C@H](Oc2ncnc3sc4c(c23)CCC4)CC1 [Compound I-68] showed pIC50 equal to 4.70 to 5.30

Tested on IRAK4 (Homo sapiens, UniProt Q9NWZ3), the item C[C@@H]1CCc2sc3ncnc(N4CCC(C(N)=O)CC4)c3c2C1 [Compound I-45] showed pIC50 equal to 4.70 to 5.30

Tested on IRAK4 (Homo sapiens, UniProt Q9NWZ3), the item O[C@H]1CCC[C@H](Nc2ncnc3sc4c(c23)CCC4)C1 (relative stereo) [Compound I-22] showed pIC50 equal to 4.70 to 5.30

Tested on IRAK4 (Homo sapiens, UniProt Q9NWZ3), the item CC1(C)CCc2sc3ncnc(N[C@H]4CC[C@H](N)CC4)c3c2C1 [Compound I-38] showed pIC50 equal to > 5.30

Tested on IRAK4 (Homo sapiens, UniProt Q9NWZ3), the item CN(Cc1ccncc1Cl)[C@H]1CC[C@H](Nc2ncnc3sc4c(c23)CCC4)CC1 [Compound I-100] showed pIC50 equal to > 5.30

Tested on IRAK4 (Homo sapiens, UniProt Q9NWZ3), the item CN[C@H]1CC[C@H](N(C)c2ncnc3sc4c(c23)CCC4)CC1 [Compound I-146] showed pIC50 equal to > 5.30

Tested on IRAK4 (Homo sapiens, UniProt Q9NWZ3), the item CC(C)N[C@H]1CC[C@@H](Nc2ncnc3sc4c(c23)CCC4)CC1 [Compound I-161] showed pIC50 equal to < 4.30
